Recorded inhibition at 10 µM values for a group of compounds are listed next.
Tested on: SN40R2 cells
assay_remarks: Protocol B: SN40R2 CellTiter-Glo luminescent cell viability assay
assay_context: read-out: SN40R2 % inhibition at 10, Protocol B, SN40R2, at 10 μM
metric: inhibition at 10 µM (%)

>>> endpoint_value("CCC(O)(c1cc(F)c2c(c1)C(=O)N(Cc1ncc(Cl)cn1)[C@@]2(O[C@H]1C[C@@H](O)C1)c1ccc(Cl)cc1)C1(F)CCNCC1 (single isomer, unassigned) [Example 542]")
-1
>>> endpoint_value("CCC(O)(c1cc(F)c2c(c1)C(=O)N(Cc1ncc(C#N)cn1)[C@@]2(O[C@H]1CCOC1)c1ccc(Cl)cc1)C1(F)CCN(C)CC1 (single isomer, unassigned) [Example 561]")
12
>>> endpoint_value("CC[C@](O)(c1cc(F)c2c(c1)C(=O)N(Cc1ncc(C#N)cn1)[C@@]2(O[C@H]1CCOC1)c1ccc(Cl)cc1)C1(F)CCOCC1 [Example 508]")
9

* * *

test_system: MDM2-p53 interaction (Homo sapiens (Human))
Sequence (Q00987 whole entry): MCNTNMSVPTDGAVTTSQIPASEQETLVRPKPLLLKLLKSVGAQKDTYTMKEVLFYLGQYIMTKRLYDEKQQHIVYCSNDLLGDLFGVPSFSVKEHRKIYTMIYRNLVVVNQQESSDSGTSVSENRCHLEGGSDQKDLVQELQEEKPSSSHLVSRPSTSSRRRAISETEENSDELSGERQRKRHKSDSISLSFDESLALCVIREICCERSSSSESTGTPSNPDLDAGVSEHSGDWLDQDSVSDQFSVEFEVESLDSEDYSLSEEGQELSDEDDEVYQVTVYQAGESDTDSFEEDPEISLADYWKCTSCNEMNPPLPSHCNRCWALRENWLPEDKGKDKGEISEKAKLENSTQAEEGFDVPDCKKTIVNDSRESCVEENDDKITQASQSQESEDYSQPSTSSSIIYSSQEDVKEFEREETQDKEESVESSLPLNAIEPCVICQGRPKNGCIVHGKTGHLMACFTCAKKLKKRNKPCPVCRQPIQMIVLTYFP
assay_context: read-out: MDM2 % inhibition @0.0010
Recorded inhibition at 0.001 µM values for a group of compounds are listed next.
metric: inhibition at 0.001 µM (%)

>>> endpoint_value("CCC(O)(c1cc(F)c2c(c1)C(=O)N(Cc1ncc(Cl)cn1)[C@@]2(OC)c1ccc(Cl)cc1)C1(F)CCNCC1 (single isomer, unassigned)")
86
>>> endpoint_value("CCC(O)(c1cc(F)c2c(c1)C(=O)N(Cc1ccc(C#N)cn1)[C@@]2(OCCOC)c1ccc(Cl)cc1)c1cn(C)cn1 (single isomer, unassigned)")
59
>>> endpoint_value("CCC(O)(c1cc(F)c2c(c1)C(=O)N(Cc1ccc(C#N)cn1)[C@@]2(OC[C@@H](C)O)c1ccc(Cl)cc1)C1(F)CCOCC1 (single isomer, unassigned)")
83
>>> endpoint_value("CCC(O)(c1cc(F)c2c(c1)C(=O)N(Cc1ccc(C#N)cn1)[C@@]2(OC1CC(O)C1)c1ccc(Cl)cc1)[C@H]1CC[C@H](O)CC1 (some centres unmarked)")
79
>>> endpoint_value("Cn1cc(C(O)(c2cc(F)c3c(c2)C(=O)N(Cc2ccc(C#N)cn2)[C@@]3(O[C@H]2CCOC2)c2ccc(Cl)cc2)C(F)(F)F)cn1 (some centres unmarked)")
65
>>> endpoint_value("CCC(O)(c1cc(F)c2c(c1)C(=O)N(Cc1ccc(C#N)cn1)[C@@]2(O[C@H]1CCOC1)c1ccc(Cl)cc1)C1(F)CCNCC1 (single isomer, unassigned)")
86
>>> endpoint_value("CC[C@@](O)(c1cc(F)c2c(c1)C(=O)N(Cc1ncc(C#N)cn1)[C@@]2(O[C@H]1CCOC1)c1ccc(Cl)cc1)C1CCC(O)CC1 (some centres unmarked)")
87
>>> endpoint_value("CC[C@@](O)(c1cc(F)c2c(c1)C(=O)N(Cc1ncc(Cl)cn1)[C@@]2(O[C@H]1C[C@@H](O)C1)c1ccc(Cl)cc1)C1CCN(C)CC1")
30

* * *

Test system: SN40R2 cells (p53 mutated, MDM2 amplified osteosarcoma)
assay_remarks: Protocol A: SN40R2 growth inhibition (sulphorhodamine B)
assay_context: read-out: SN40R2 IC50 (μM) (Protocol A)
metric: IC50

>>> endpoint_value("CO[C@]1(c2ccc(Cl)cc2)c2c(F)cc(C(C)(O)C3CCN(C(=O)CO)CC3)cc2C(=O)N1Cc1ccc(Cl)cn1 (single isomer, unassigned) [Example 296]")
"32 µM"
>>> endpoint_value("CC(O)(c1cc(F)c2c(c1)C(=O)N(Cc1ccc(Cl)cn1)[C@@]2(OCC1(C#N)CC1)c1ccc(Cl)cc1)C1CCN(CCO)CC1 (single isomer, unassigned) [Example 420]")
"17 µM"
